Target: topoisomerase I (Homo sapiens)
Sequence (P11387 whole entry, the tested form may be a part): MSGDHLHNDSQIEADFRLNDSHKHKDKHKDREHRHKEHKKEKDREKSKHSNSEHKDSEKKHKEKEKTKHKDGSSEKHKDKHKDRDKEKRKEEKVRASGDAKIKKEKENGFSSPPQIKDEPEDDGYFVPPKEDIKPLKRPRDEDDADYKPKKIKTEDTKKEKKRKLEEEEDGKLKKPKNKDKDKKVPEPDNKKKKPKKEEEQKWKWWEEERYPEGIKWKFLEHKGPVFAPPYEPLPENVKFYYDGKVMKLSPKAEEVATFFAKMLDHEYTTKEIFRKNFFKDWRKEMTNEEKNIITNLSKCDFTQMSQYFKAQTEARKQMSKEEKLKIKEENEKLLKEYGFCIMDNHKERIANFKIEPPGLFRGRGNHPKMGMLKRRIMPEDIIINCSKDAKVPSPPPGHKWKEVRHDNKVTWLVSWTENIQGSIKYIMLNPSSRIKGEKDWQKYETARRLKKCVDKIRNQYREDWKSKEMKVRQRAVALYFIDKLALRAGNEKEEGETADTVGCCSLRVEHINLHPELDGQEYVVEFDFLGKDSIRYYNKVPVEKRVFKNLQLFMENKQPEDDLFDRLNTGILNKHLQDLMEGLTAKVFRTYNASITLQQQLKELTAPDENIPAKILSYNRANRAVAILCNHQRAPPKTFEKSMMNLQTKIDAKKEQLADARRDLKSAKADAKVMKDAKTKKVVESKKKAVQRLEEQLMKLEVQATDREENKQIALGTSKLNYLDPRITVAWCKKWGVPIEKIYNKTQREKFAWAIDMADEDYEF
Assay: Topoisomerase I-mediated DNA cleavage, 3'-end-labeled 161 bp pBluescript SK(-) fragment
Format: biochemical
Conditions: Table 1; tested at concentrations ranging up to 10 μM; semi-quantitative relative to compound A
experimentalReadout: Top 1 Cleavage

Answer briefly: Top 1 Cleavage recorded on topoisomerase I (Homo sapiens) for COc1cc2c(c(OC)c1OC)-c1ncc3cc4c(cc3c1C2)OCO4.Cl [Compound 9bc]
0 (0, no activity)

----------
System: SN12C
Assay: COMPARE screening (NCI), GI50 in SN12C
Conditions: human
experimentalReadout: GI50

Please report GI50 for the following compound: COc1cc2c(c(OC)c1OC)-c1ncc3cc(OC)c(OC)c(OC)c3c1C2.Cl [Compound 9ec, Hydrochloride]
20.3 µM
